# credit: patent US8957062B2

# studyTarget: human GPR119 (Homo sapiens)
# experimentalDetails: Measurement of GPR119 signaling (cAMP assay) in cells stably transfected with human GPR119
# Type: cell-based
# conditionSet: table column; cAMP stimulation, human GPR119; read-out: GPR119 Human EC50
pEC50: −log10 of the molar value.
measureName: pEC50

compound	measureName	reportedValue
CCOC(=O)N1CCC([C@H]2C[C@H]2CCOc2ccc(-n3cnnn3)cc2)CC1	pEC50	8.70

a: CC1(OC(=O)N2CCC([C@H]3C[C@H]3CCOc3cc(F)c(C(=O)C4CC4)c(F)c3)CC2)CC1
b: COCc1noc(N2CCC([C@H]3C[C@H]3CCOc3cc(F)c(CC(=O)N4CCC4)c(F)c3)CC2)n1
c: Cc1cc(CC(=O)N2CCC(C)CC2)cnc1OCC[C@@H]1C[C@@H]1C1CCN(c2nc(C(C)C)no2)CC1
d: Cc1cc(-n2cnnn2)cnc1OCC[C@@H]1C[C@@H]1C1CCN(C(=O)OCc2ccccc2)CC1
Problem: Task field, ranking: reported pEC50, descending order. Field: ranking. Enter the labels in the order requested.
Result: a, b, d, c

###

# studyTarget: human GPR119 (Homo sapiens, UniProt Q8TDV5)
# experimentalDetails: Measurement of GPR119 signaling (cAMP assay) in cells stably transfected with human GPR119
# Assay type: cell-based
# conditionSet: table column; cAMP stimulation, human GPR119; read-out: GPR119 Human EC50
measureName: EC50 (nM)

compound	studyTarget	EC50, nM
O=C(OC1CCC1)N1CCC([C@H]2C[C@H]2CCOc2ccc(-n3cnnn3)cc2)CC1 [Example 8]	human GPR119 (Homo sapiens, UniProt Q8TDV5)	1
CCN(CC)C(=O)Cc1ccc(OCC[C@@H]2C[C@@H]2C2CCN(c3nc(C(C)C)no3)CC2)cc1 [Example 136]	human GPR119 (Homo sapiens, UniProt Q8TDV5)	3.9
COCc1nc(N2CCC([C@H]3C[C@H]3CCOc3ccc(S(C)(=O)=O)cn3)CC2)no1 [Example 245]	human GPR119 (Homo sapiens, UniProt Q8TDV5)	8.1
CC(C)c1noc(N2CCC([C@H]3C[C@H]3CCOc3ccc(CC(=O)N(C)CC4CCC(=O)N4C)c(F)c3)CC2)n1 (stereo partly shown) [Example 169]	human GPR119 (Homo sapiens, UniProt Q8TDV5)	7.7
CC(C)c1noc(N2CCC([C@H]3C[C@H]3CCOc3ccc(CC(=O)N4CCCCC4)c(F)c3)CC2)n1 [Example 145]	human GPR119 (Homo sapiens, UniProt Q8TDV5)	1.7

1: Cc1nc(C#N)cc(OCC[C@@H]2C[C@@H]2C2CCN(C(=O)OC(C)(C)C)CC2)n1 [Example 47]
2: CC(C)c1noc(N2CCC([C@H]3C[C@H]3CCOc3ccc(CC(=O)N4CCOCC4)c(F)c3)CC2)n1 [Example 142]
3: CC(C)CC(=O)N1CCC([C@H]2C[C@H]2CCOc2ccc(S(C)(=O)=O)cn2)CC1 [Example 86]
4: CC(C)c1noc(N2CCC([C@H]3C[C@H]3CCOc3ccc(CC(=O)N4CC(F)C4)cc3)CC2)n1 [Example 129]
5: CS(=O)(=O)c1ccc(OCC[C@@H]2C[C@@H]2C2CCN(C(=O)CC3CC4C=CC3C4)CC2)nc1 (stereo partly shown) [Example 90]
Problem: Rank ascending by EC50. Kindly provide the labels arranged according to the requested ordering.
Result: 1, 2, 4, 5, 3
(1: 0.2 nM, 2: 0.84 nM, 4: 1.5 nM, 5: 16 nM, 3: 29 nM)

###

# studyTarget: human GPR119 (Homo sapiens, UniProt Q8TDV5)
# experimentalDetails: Measurement of GPR119 signaling (cAMP assay) in cells stably transfected with human GPR119
# Type: cell-based
# conditionSet: table column; cAMP stimulation, human GPR119; read-out: GPR119 Human EC50
pEC50: −log10 of the molar value.
measureName: pEC50

Reference set (4 entries):
compound	pEC50
COC1CN(C(=O)Cc2cnc(OCC[C@@H]3C[C@@H]3C3CCN(c4nc(C(C)C)no4)CC3)c(C)c2)C1	7.72
CC1(OC(=O)N2CCC([C@H]3C[C@H]3CCOc3ccc(S(=O)(=O)C4CC4)cc3)CC2)CC1	7.80
CC(C)c1noc(N2CCC([C@H]3C[C@H]3CCOc3ccc(CC(=O)N4Cc5sccc5C(O)C4)c(F)c3)CC2)n1 (stereo partly shown)	8.33
CS(=O)(=O)c1ccc(OCC[C@@H]2C[C@@H]2C2CCN(C(=O)OC3CCC3)CC2)nc1	9.40

1: CC(C)c1noc(N2CCC([C@H]3C[C@H]3CCOc3ccc(CC(=O)NC4CCCC4)c(F)c3)CC2)n1
2: Cc1cc(OCC[C@@H]2C[C@@H]2C2CCN(c3nc(C(C)C)no3)CC2)ccc1-n1cnnn1
Problem: Which entry shows the lesser value of pEC50 here, 1 or 2 ? Give the label under which the chosen entry appears.
Result: 1

###

# studyTarget: human GPR119 (Homo sapiens, UniProt Q8TDV5)
# experimentalDetails: Measurement of GPR119 signaling (cAMP assay) in cells stably transfected with human GPR119
# Format: cell-based
# conditionSet: stated in the example text; cAMP stimulation, human GPR119; read-out: GPR119 Human EC50
pEC50: −log10 of the molar value.
measureName: pEC50

molecule	studyTarget	pEC50
CC(C)(C)OC(=O)N1CCC([C@H]2C[C@H]2CCOc2ccc(S(C)(=O)=O)cc2)CC1	human GPR119 (Homo sapiens, UniProt Q8TDV5)	9.05
CC(C)c1noc(N2CCC([C@H]3C[C@H]3CCOc3cc(F)c(CC(=O)N4CC(O)C4)c(F)c3)CC2)n1	human GPR119 (Homo sapiens, UniProt Q8TDV5)	9.02
CC(C)c1nc(N2CCC([C@H]3C[C@H]3CCOc3ccc(CC(=O)N4CC(O)C4)c(F)c3)CC2)no1	human GPR119 (Homo sapiens, UniProt Q8TDV5)	8.80
CC(C)c1noc(N2CCC([C@H]3C[C@H]3CCOc3ccc(CC(=O)N4CCC4)cc3)CC2)n1	human GPR119 (Homo sapiens, UniProt Q8TDV5)	8.74

I: COCc1noc(N2CCC([C@H]3C[C@H]3CCOc3cc(F)c(CC(=O)N4CC(F)C4)c(F)c3)CC2)n1
II: COCc1noc(N2CCC([C@@H]3C[C@@H]3CCOc3ccc(S(C)(=O)=O)cc3F)CC2)n1 (stereo in doubt)
Problem: Compare pEC50: is it lower for I or for II ? Please identify the chosen entry by its label.
Result: I
(I: 8.85, II: 9.05)

###

# studyTarget: UniProtKB Q8TDV5
# Sequence (Q8TDV5 1-308 limits assumed): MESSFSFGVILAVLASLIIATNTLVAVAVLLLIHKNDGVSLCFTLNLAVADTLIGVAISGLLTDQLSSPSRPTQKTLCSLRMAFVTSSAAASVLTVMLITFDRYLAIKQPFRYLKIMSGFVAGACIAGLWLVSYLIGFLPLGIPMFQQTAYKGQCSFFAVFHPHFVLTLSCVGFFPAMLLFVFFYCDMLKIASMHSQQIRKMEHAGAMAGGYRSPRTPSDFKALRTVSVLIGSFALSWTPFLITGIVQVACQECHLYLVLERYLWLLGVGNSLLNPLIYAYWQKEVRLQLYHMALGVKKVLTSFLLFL
# experimentalDetails: Measurement of GPR119 signaling (cAMP assay) in cells stably transfected with human GPR119
# Format: cell-based
# conditionSet: table column; cAMP stimulation, human GPR119; read-out: GPR119 Human EC50
measureName: EC50 (nM)

compound	EC50 / nM
COCc1noc(N2CCC([C@H]3C[C@H]3CCOc3ccc(CC(=O)N(C)C)c(F)c3)CC2)n1	5.9

A: COC1CN(C(=O)Cc2ccc(OCC[C@@H]3C[C@@H]3C3CCN(c4nc(C(C)C)no4)CC3)cc2F)C1
B: CC(C)OC(=O)N1CCC([C@H]2C[C@H]2CCOc2ccc(-n3cnnn3)cc2)CC1
Problem: Between A and B , which one shows the smaller EC50 number? Pick one and reply with its label.
Result: A
(A: 0.93 nM, B: 1.5 nM)

###

# studyTarget: human GPR119 (Homo sapiens)
# Sequence (Q8TDV5 1-308 limits assumed): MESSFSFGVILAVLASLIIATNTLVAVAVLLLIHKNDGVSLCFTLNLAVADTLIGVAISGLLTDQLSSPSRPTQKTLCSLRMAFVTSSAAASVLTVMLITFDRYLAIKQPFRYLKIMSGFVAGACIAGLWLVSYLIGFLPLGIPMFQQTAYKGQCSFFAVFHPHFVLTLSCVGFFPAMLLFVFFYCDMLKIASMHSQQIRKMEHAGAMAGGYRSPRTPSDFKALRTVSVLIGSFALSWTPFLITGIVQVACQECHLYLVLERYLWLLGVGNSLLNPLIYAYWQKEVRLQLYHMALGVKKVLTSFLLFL
# experimentalDetails: Measurement of GPR119 signaling (cAMP assay) in cells stably transfected with human GPR119
# Type: cell-based
# conditionSet: table column; cAMP stimulation, human GPR119; read-out: GPR119 Human EC50
measureName: EC50 (nM)

A: COCc1noc(N2CCC([C@H]3C[C@H]3CCOc3ccc(CC(=O)NC4CC4)c(F)c3)CC2)n1
B: Cc1nc(C#N)cc(OCC[C@@H]2C[C@@H]2C2CCN(c3nc(C(C)C)no3)CC2)n1
C: CS(=O)(=O)c1ccc(OCC[C@@H]2C[C@@H]2C2CCN(C(=O)CC3CCCC3)CC2)cc1F
D: CS(=O)(=O)c1ccc(OCC[C@@H]2C[C@@H]2C2CCN(C(=O)Cc3cccs3)CC2)nc1
Problem: Order each entry by recorded EC50, climbing from the minimum. Form entry: ranked labels (order as requested).
Result: B, C, A, D
(B: 0.4 nM, C: 4.6 nM, A: 13 nM, D: 36 nM)
